- tgt: T1, Nluc-IL23R fusion protein (human, UniProt Q5VWK5 22-629)
- T1 construct: range 22-629; expressed with a secretion signal in HEK293 cells; used as crude membrane preparation; also called hIL-23R; human IL-23R; not shown: Nanoluc protein from the expression plasmid N1371 (Promega), N-terminal of IL-23R
- T1 sequence (looked up): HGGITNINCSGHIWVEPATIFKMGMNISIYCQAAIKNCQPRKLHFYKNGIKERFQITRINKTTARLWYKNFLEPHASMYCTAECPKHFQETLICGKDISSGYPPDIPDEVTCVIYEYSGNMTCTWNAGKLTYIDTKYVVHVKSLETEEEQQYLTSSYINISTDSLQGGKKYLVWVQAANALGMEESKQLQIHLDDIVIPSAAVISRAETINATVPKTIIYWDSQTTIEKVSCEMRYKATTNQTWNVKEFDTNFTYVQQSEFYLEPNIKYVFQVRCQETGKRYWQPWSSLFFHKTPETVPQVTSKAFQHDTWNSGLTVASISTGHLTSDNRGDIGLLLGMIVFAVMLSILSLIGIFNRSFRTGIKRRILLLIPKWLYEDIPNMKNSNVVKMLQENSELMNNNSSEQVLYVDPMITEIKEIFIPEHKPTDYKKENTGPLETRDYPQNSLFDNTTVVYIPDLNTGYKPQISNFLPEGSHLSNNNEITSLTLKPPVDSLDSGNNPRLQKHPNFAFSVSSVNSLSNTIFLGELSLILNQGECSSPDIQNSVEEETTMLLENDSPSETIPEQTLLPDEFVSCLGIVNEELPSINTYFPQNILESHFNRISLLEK
- test.summary: BRET competition vs TAMRA-labelled peptide, Nluc-IL23R membranes
pIC50: −log10 of the molar value. *1 amine or outer side, *2 acyl side, *3 side chain or, on linkers, in order; H or OH if unused. Bridges are numbered along the chain shown (N, C = ends). Where no end group is shown, it is not given here. [ ]: non-standard residue; d: D form. 4‑Aminomethyl‑phenylacetyl = 4-aminomethyl-phenylacetyl unit, its amine closes the lactam, O=C(Cc1ccc(CN[*:1])cc1)[*:2]; 2Nal = N[C@@H](Cc1ccc2ccccc2c1)C(=O)O; AEF = NCCOc1ccc(C[C@H](N)C(=O)O)cc1; αMeL = CC(C)C[C@](C)(N)C(=O)O; 3Amb = NCc1cccc(C(=O)O)c1

binder	pIC50
[3Amb]SCWQC[AEF][2Nal][αMeL]E[dR]-NH2 (lactam N-10; bridge 3-6; not fully specified (bridges); printed as [(3-Aminomethyl)benzoyl](1c)*SC(2a)WQC(2a)[Y(2-aminoethoxy)][2-Nal][2-Me-Leu]E(1c)[{d}R]-[NH2], Y = Y(2-aminoethoxy), R = D-Arg) [Ref 41]	8.55
[4‑Aminomethyl‑phenylacetyl]SCWQC[AEF][2Nal][αMeL]ES-NH2 (lactam (positions not given here); bridge 3-6; not fully specified (bridges); printed as [4-Aminomethyl-phenylacetyl](1c)*SC(2a)WQC(2a)[Y(2-aminoethoxy)][2-Nal][2-Me-Leu]E(1c)S-[NH2], Y = Y(2-aminoethoxy)) [Ref 81]	9.41
Ac-KSCWQCW[2Nal]LER-NH2 (lactam 1-10; bridge 3-6; not fully specified (bridges); printed as [Ac]-K(1c)SC(2a)WQC(2a)W[2-Nal]LE(1c)R-[NH2]) [Ref 18]	8.46

Each recorded value in this set is attributed to patent EP4471049A1.
